This section presents compounds with their documented Bliss excess values.
- System: JVM-2 (B-Cell Non-Hodgkin's Lymphoma)
- PROTOCOL_DESCRIPTION: Bliss excess, mean over the matrix (fraction); higher = more synergy
MEASURE: Bliss excess

{"COMPOUND": "CC1(C)CCC(CN2CCN(c3ccc(C(=O)NS(=O)(=O)c4ccc(NCC5CCOCC5)c([N+](=O)[O-])c4)c(Oc4cnc5[nH]ccc5c4)c3)CC2)=C(c2ccc(Cl)cc2)C1 [Venetoclax] + COc1cc(Nc2ncc3c(n2)-c2ccc(Cl)cc2C(c2c(F)cccc2OC)=NC3)ccc1C(=O)O [Alisertib] (first compound max 1 µM, 7x7, partner max 10 µM)", "MEASURE": "Bliss excess", "RECORDED_RESULT": 0.0333}
{"COMPOUND": "COc1nnc2ccc(N3CCC(c4ccc(OCCN5CCN(C)C(=O)[C@H]5C)cc4)CC3)nn12 [AZD5153] + CCN(CCO)CCCOc1ccc2c(Nc3cc(CC(=O)Nc4cccc(F)c4)[nH]n3)ncnc2c1 [AZD2811] (first compound max 1 µM, 7x7, partner max 1 µM)", "MEASURE": "Bliss excess", "RECORDED_RESULT": -0.0498}
{"COMPOUND": "CC1(C)CCC(CN2CCN(c3ccc(C(=O)NS(=O)(=O)c4ccc(NCC5CCOCC5)c([N+](=O)[O-])c4)c(Oc4cnc5[nH]ccc5c4)c3)CC2)=C(c2ccc(Cl)cc2)C1 [Venetoclax] + C=CCn1c(=O)c2cnc(Nc3ccc(N4CCN(C)CC4)cc3)nc2n1-c1cccc(C(C)(C)O)n1 [AZD1775] (first compound max 1 µM, partner max 1 µM)", "MEASURE": "Bliss excess", "RECORDED_RESULT": 0.0333}
{"COMPOUND": "CN(C)CCCOc1ccc(-c2ccc3ncc4c(c3c2)n(C2CCOCC2)c(=O)n4C)cn1 [AZD0156] + CCN(CCO)CCCOc1ccc2c(Nc3cc(CC(=O)Nc4cccc(F)c4)[nH]n3)ncnc2c1 [AZD2811] (first compound max 1 µM, 7x7, partner max 1 µM)", "MEASURE": "Bliss excess", "RECORDED_RESULT": 0.0105}
{"COMPOUND": "COc1nnc2ccc(N3CCC(c4ccc(OCCN5CCN(C)C(=O)[C@H]5C)cc4)CC3)nn12 [AZD5153] + Cc1c2c(nn1C)CSCc1cc(n(C)n1)CSc1cc(c3ccccc3c1)OCCCc1c(C(=O)O)n(C)c3c-2c(Cl)ccc13 [AZD5991] (first compound max 1 µM, 7x7, partner max 1 µM)", "MEASURE": "Bliss excess", "RECORDED_RESULT": -0.0404}
{"COMPOUND": "COc1nnc2ccc(N3CCC(c4ccc(OCCN5CCN(C)C(=O)[C@H]5C)cc4)CC3)nn12 [AZD5153] + CN(CC[C@H](CSC1=CC=CC=C1)NC2=C(C=C(C=C2)S(=O)(=O)NC(=O)C3=CC=C(C=C3)N4CCC(CC4)[C@H](C5=CC=CC=C5C6=CC=C(C=C6)Cl)O)S(=O)(=O)C(F)(F)F)CCO [AZD4320] (first compound max 1 µM, 7x7, partner max 1 µM)", "MEASURE": "Bliss excess", "RECORDED_RESULT": 0.0973}
{"COMPOUND": "CCc1c2c(nc3ccc(O)cc13)-c1cc3c(c(=O)n1C2)COC(=O)[C@]3(O)CC [SN-38] + O=C(c1cc(Cc2n[nH]c(=O)c3ccccc23)ccc1F)N1CCN(C(=O)C2CC2)CC1 [Olaparib] (first compound max 0.3 µM, 7x7, partner max 10 µM)", "MEASURE": "Bliss excess", "RECORDED_RESULT": 0.115}
{"COMPOUND": "CC(=O)c1c(C)c2cnc(Nc3ccc(N4CCNCC4)cn3)nc2n(C2CCCC2)c1=O [Palbociclib] + CC1(C)CCC(CN2CCN(c3ccc(C(=O)NS(=O)(=O)c4ccc(NCC5CCOCC5)c([N+](=O)[O-])c4)c(Oc4cnc5[nH]ccc5c4)c3)CC2)=C(c2ccc(Cl)cc2)C1 [Venetoclax] (first compound max 10 µM, 7x7, partner max 1 µM)", "MEASURE": "Bliss excess", "RECORDED_RESULT": -0.0273}
{"COMPOUND": "CN(CCO)CC[C@H](CSc1ccccc1)Nc1ccc(S(=O)(=O)NC(=O)c2ccc(N3CCC([C@@H](O)c4ccccc4-c4ccc(Cl)cc4)CC3)cc2)cc1S(=O)(=O)C(F)(F)F [AZD4320] + C1CN(CCC1(C(=O)N[C@@H](CCO)C2=CC=C(C=C2)Cl)N)C3=NC=NC4=C3C=CN4 [Capivasertib] (first compound max 1 µM, 7x7, partner max 3 µM)", "MEASURE": "Bliss excess", "RECORDED_RESULT": -0.0068}
{"COMPOUND": "Cc1cc2ncnn2cc1Nc1ncc2c(n1)n(C1CCOCC1)c(=O)n2C [AZD7648] + CCN(CCO)CCCOc1ccc2c(Nc3cc(CC(=O)Nc4cccc(F)c4)[nH]n3)ncnc2c1 [AZD2811] (first compound max 10 µM, 7x7, partner max 1 µM)", "MEASURE": "Bliss excess", "RECORDED_RESULT": 0.0382}
{"COMPOUND": "Cc1cc2ncnn2cc1Nc1ncc2c(n1)n(C1CCOCC1)c(=O)n2C [AZD7648] + C=CCn1c(=O)c2cnc(Nc3ccc(N4CCN(C)CC4)cc3)nc2n1-c1cccc(C(C)(C)O)n1 [AZD1775] (first compound max 10 µM, partner max 1 µM)", "MEASURE": "Bliss excess", "RECORDED_RESULT": -0.0458}
{"COMPOUND": "CN(CCO)CC[C@H](CSc1ccccc1)Nc1ccc(S(=O)(=O)NC(=O)c2ccc(N3CCC([C@@H](O)c4ccccc4-c4ccc(Cl)cc4)CC3)cc2)cc1S(=O)(=O)C(F)(F)F [AZD4320] + Cn1cnc2c(F)c(Nc3ccc(Br)cc3Cl)c(C(=O)NOCCO)cc21 [Selumetinib] (first compound max 1 µM, 7x7, partner max 3 µM)", "MEASURE": "Bliss excess", "RECORDED_RESULT": 0.025}
{"COMPOUND": "Cc1cc2ncnn2cc1Nc1ncc2c(n1)n(C1CCOCC1)c(=O)n2C [AZD7648] + CN(C)CCCOc1ccc(-c2ccc3ncc4c(c3c2)n(C2CCOCC2)c(=O)n4C)cn1 [AZD0156] (first compound max 10 µM, 7x7, partner max 1 µM)", "MEASURE": "Bliss excess", "RECORDED_RESULT": -0.0297}

* * *

- Tested on: 769-P (Kidney Carcinoma)
- PROTOCOL_DESCRIPTION: Bliss excess, mean over the matrix (fraction); higher = more synergy
This section presents compounds with their documented Bliss excess values.

{"COMPOUND": "C=CCn1c(=O)c2cnc(Nc3ccc(N4CCN(C)CC4)cc3)nc2n1-c1cccc(C(C)(C)O)n1 [AZD1775] + C[C@@H]1COCCN1C2=NC(=NC(=C2)C3(CC3)[S@](=N)(=O)C)C4=C5C=CNC5=NC=C4 [AZD6738] (first compound max 1 µM, partner max 10 µM)", "Bliss excess": 0.0092}
{"COMPOUND": "CC1(C)CCC(CN2CCN(c3ccc(C(=O)NS(=O)(=O)c4ccc(NCC5CCOCC5)c([N+](=O)[O-])c4)c(Oc4cnc5[nH]ccc5c4)c3)CC2)=C(c2ccc(Cl)cc2)C1 [Venetoclax] + Cn1cnc2c(F)c(Nc3ccc(Br)cc3Cl)c(C(=O)NOCCO)cc21 [Selumetinib] (first compound max 1 µM, 7x7, partner max 3 µM)", "Bliss excess": -0.004}

* * *

- Test system: SW620 (Colorectal Carcinoma)
- PROTOCOL_DESCRIPTION: combination Emax (second highest fraction inhibited in the dose matrix, 72 h); higher = more inhibition; extreme values may be limits of the assay

{"COMPOUND": "CCN(CCO)CCCOc1ccc2c(Nc3cc(CC(=O)Nc4cccc(F)c4)[nH]n3)ncnc2c1 [AZD2811] + O=C(c1cc(Cc2n[nH]c(=O)c3ccccc23)ccc1F)N1CCN(C(=O)C2CC2)CC1 [Olaparib] (first compound max 1 µM, 7x7, partner max 10 µM)", "combination Emax": 0.281}
{"COMPOUND": "CC(=O)c1c(C)c2cnc(Nc3ccc(N4CCNCC4)cn3)nc2n(C2CCCC2)c1=O [Palbociclib] + Cc1c2c(nn1C)CSCc1cc(n(C)n1)CSc1cc(c3ccccc3c1)OCCCc1c(C(=O)O)n(C)c3c-2c(Cl)ccc13 [AZD5991] (first compound max 10 µM, 7x7, partner max 1 µM)", "combination Emax": 0.466}

* * *

- System: EPLC-272H (Other Solid Carcinomas)
- PROTOCOL_DESCRIPTION: Bliss excess, mean over the matrix (fraction); higher = more synergy

{"COMPOUND": "Cc1c2c(nn1C)CSCc1cc(n(C)n1)CSc1cc(c3ccccc3c1)OCCCc1c(C(=O)O)n(C)c3c-2c(Cl)ccc13 [AZD5991] + CN(C)CCCOc1ccc(-c2ccc3ncc4c(c3c2)n(C2CCOCC2)c(=O)n4C)cn1 [AZD0156] (first compound max 1 µM, 7x7, partner max 1 µM)", "Bliss excess": 0.0047}
{"COMPOUND": "CC(=O)Nc1cccc(-n2c(=O)n(C3CC3)c(=O)c3c(Nc4ccc(I)cc4F)n(C)c(=O)c(C)c32)c1 [Trametinib] + Cc1nc(-c2cn3c(n2)-c2ccc(-c4cnn(C(C)(C)C(N)=O)c4)cc2OCC3)n(C(C)C)n1 [Taselisib] (first compound max 1 µM, 7x7, partner max 10 µM)", "Bliss excess": 0.041}
{"COMPOUND": "CCN(CCO)CCCOc1ccc2c(Nc3cc(CC(=O)Nc4cccc(F)c4)[nH]n3)ncnc2c1 [AZD2811] + O=C(c1cc(Cc2n[nH]c(=O)c3ccccc23)ccc1F)N1CCN(C(=O)C2CC2)CC1 [Olaparib] (first compound max 1 µM, 7x7, partner max 10 µM)", "Bliss excess": 0.0042}
{"COMPOUND": "CN(CCO)CC[C@H](CSc1ccccc1)Nc1ccc(S(=O)(=O)NC(=O)c2ccc(N3CCC([C@@H](O)c4ccccc4-c4ccc(Cl)cc4)CC3)cc2)cc1S(=O)(=O)C(F)(F)F [AZD4320] + CN(C)CCCOc1ccc(-c2ccc3ncc4c(c3c2)n(C2CCOCC2)c(=O)n4C)cn1 [AZD0156] (first compound max 1 µM, 7x7, partner max 1 µM)", "Bliss excess": 0.0102}
